Values were extracted from patent US7482462B2.

System: human steroid sulfatase (Homo sapiens, UniProt P08842)
Construct: Human placenta is obtained freshly after delivery
Sequence (P08842 22-583): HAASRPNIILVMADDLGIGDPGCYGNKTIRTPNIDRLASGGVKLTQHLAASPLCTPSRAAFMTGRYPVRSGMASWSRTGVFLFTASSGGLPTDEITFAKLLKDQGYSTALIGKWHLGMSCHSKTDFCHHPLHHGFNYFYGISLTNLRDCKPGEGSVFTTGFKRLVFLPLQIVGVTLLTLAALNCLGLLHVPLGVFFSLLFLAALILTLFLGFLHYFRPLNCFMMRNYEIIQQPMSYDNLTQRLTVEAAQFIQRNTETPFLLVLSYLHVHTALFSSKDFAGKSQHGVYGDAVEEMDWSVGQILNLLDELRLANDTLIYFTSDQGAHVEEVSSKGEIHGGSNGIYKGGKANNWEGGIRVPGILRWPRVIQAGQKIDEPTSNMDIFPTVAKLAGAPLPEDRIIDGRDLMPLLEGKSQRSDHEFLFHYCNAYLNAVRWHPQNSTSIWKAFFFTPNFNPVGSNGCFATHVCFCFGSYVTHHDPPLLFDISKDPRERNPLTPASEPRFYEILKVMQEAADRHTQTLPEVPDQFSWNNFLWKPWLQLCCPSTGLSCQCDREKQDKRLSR
Test protocol: Assay of Human Steroid Sulfatase (purified from placenta, 4-methylumbelliferyl sulfate cleavage, fluorescence)
Condition notes: reference compound, determined in parallel to test compounds; substrate 4-methylumbelliferyl sulfate, 37° C., 1 hour
pIC50: −log10 of the molar value.
Value type: pIC50

1) CC12CCC3c4ccc(OS(N)(=O)=O)cc4CCC3C1CCC2=O (stereo not shown) [estrone sulfamate, Estrone sulfamate]; ~7.22
